Structures can show the parent of a compound that is named as a salt.
pKi, 5-hydroxytryptamine receptor 7 (Homo sapiens): measured values
Please express pKi as -log10 of the molar concentration.

{"columns": ["MOLECULE", "MEASURED TARGET", "MEASURED ATTRIBUTE", "REPORTED RESULT"],
 "data": [
  ["C[C@H](Cc1cc2c(c(C(N)=O)c1)N(CCCO)CC2)NCCOc1ccccc1OCC(F)(F)F", "5-hydroxytryptamine receptor 7 (Homo sapiens)", "pKi", 6.32],
  ["Clc1ccc(CCCOCCCN2CCCCC2)cc1 [PITOLISANT HYDROCHLORIDE]", "5-hydroxytryptamine receptor 7 (Homo sapiens)", "pKi", 5.96],
  ["CCc1nn(CCCN2CCN(c3cccc(Cl)c3)CC2)c(=O)n1CCOc1ccccc1 [NEFAZODONE HYDROCHLORIDE]", "5-hydroxytryptamine receptor 7 (Homo sapiens)", "pKi", 7.15],
  ["CNC[C@H](O)c1cccc(O)c1", "5-hydroxytryptamine receptor 7 (Homo sapiens)", "pKi", 5.95],
  ["Cc1cccc([C@H](C)c2cnc[nH]2)c1C [DEXMEDETOMIDINE HYDROCHLORIDE]", "5-hydroxytryptamine receptor 7 (Homo sapiens)", "pKi", 6.03]
]}

// returns pKi for CN(C)C(=O)N[C@H]1CC[C@H](CCN2CCN(c3cccc(Cl)c3Cl)CC2)CC1 [CARIPRAZINE HYDROCHLORIDE] with 5-hydroxytryptamine receptor 7 (Homo sapiens); value = 7.12

// returns pKi for Cc1ccc2c(c1)c1c(n2CCc2ccc(C)nc2)CCN(C)C1 [LATREPIRDINE] with 5-hydroxytryptamine receptor 7 (Homo sapiens); value = 7.83

// returns pKi for CN1C[C@H](C(=O)N[C@]2(C)O[C@@]3(O)[C@@H]4CCCN4C(=O)[C@H](Cc4ccccc4)N3C2=O)C[C@@H]2c3cccc4[nH]cc(c34)C[C@H]21 [DIHYDROERGOTAMINE MESYLATE] with 5-hydroxytryptamine receptor 7 (Homo sapiens); value = 7.22
